- assay.comment: chemical genetic growth profiling, strain panel (AID 1159580);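 note: tested at 20 µM; growth read once vehicle control cultures reached saturation at 30 °C; 1 = growth at the plate median or of vehicle wells; lower values mean less growth of the strain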
- condition.summary: S. cerevisiae deletion strains, growth OD, locus YDR335W, strain msn5, active compounds read low
Screen size: about 5,500 compounds; about 2,000 (36%) were called active. About 18% were inconclusive and are not listed. Some of the results follow.
test.readout: normalized growth
Lab note: record just the number, no unit beside it.

Examples from the recorded data:
normalized growth measured on CCC1(C)CC(=O)NC1=O (stereo unspecified) = 0.969

normalized growth measured on CC1(C)S[C@@H]2[C@H](NC(=O)[C@H](NC(=O)N3CCNC3=O)c3ccccc3)C(=O)N2C1C(=O)O (stereo partly specified) = 0.971

normalized growth measured on CC1(C)C2CC[C@]3(C)C(C(=O)C=C4[C@@H]5C[C@@](C)(C(=O)O)CC[C@]5(C)CC[C@]43C)[C@@]2(C)CC[C@@H]1OC(=O)CCC(=O)O (stereo partly specified) = 0.979

normalized growth measured on CCC1(c2ccc(N)cc2)CCC(=O)NC1=O (stereo unspecified) = 0.959

normalized growth measured on CC(=O)O[C@@](C)(CCC=C(C)C)C1CC=C(C)CC1 (stereo partly specified) = 0.986

normalized growth measured on CCc1nc(N)nc(N)c1-c1ccc(Cl)cc1 = 0.973

normalized growth measured on NC(=O)N1c2ccccc2CC(=O)c2ccccc21 = 0.973

normalized growth measured on Cc1cccc(Nc2cc(Cl)nc(SCC(=O)O)n2)c1C = 0.996

More entries:
normalized growth measured on COc1cc(O)c2c(=O)cc(C)oc2c1CC=C(C)C = 0.986

normalized growth measured on COc1c(O)cc2oc3cc(O)c(CC=C(C)C)c(O)c3c(=O)c2c1CC=C(C)C = 0.957

normalized growth measured on CCCCCC(C)N (stereo unspecified) = 1.03

---

- assay.comment: chemical genetic growth profiling, strain panel (AID 1159580)
- condition.summary: S. cerevisiae deletion strains, growth OD, locus YJR043C, strain POL32, active compounds read low
In all, about 5,500 compounds went through this assay and about 2,000 (36%) were called active. About 18% were inconclusive and are not listed. This is one part of the list.
Below, each entry is listed alongside its reported normalized growth.
Lab note: record just the number, no unit beside it.

normalized growth measured on CNc1ccccc1C(=O)N1CCc2c([nH]c3ccccc23)C1=O = 0.986

normalized growth measured on O=C(O)C1C(O)CCC2CN3CCc4c([nH]c5ccccc45)C3CC21 (stereo unspecified) = 1.02

normalized growth measured on COc1ccc(-c2coc3c(OC)c(O)ccc3c2=O)cc1 = 0.914

normalized growth measured on COc1ccc(-c2coc3c(OC)c(OC)cc(OC)c3c2=O)cc1 = 0.964

normalized growth measured on O=C(O)CSCC(=O)N1CCc2c([nH]c3ccccc23)C1C(F)(F)F (stereo unspecified) = 1.02

More entries:
normalized growth measured on O=C(O)COCC(=O)N1CCc2c([nH]c3ccccc23)C1C(F)(F)F (stereo unspecified) = 1.02

---

- assay.comment: chemical genetic growth profiling, strain panel (AID 1159580)
- condition.summary: S. cerevisiae deletion strains, growth OD, locus YNL222W, strain SSU72
Hit rate of the full screen: of about 5,500 compounds, about 2,000 (36%) were called active. Inconclusive results (about 18%) are left out. Rule as the data show it: active = normalized growth mostly below about 0.91 (no sharp cut-off); inconclusive = no clear call, values can overlap the other calls; inactive = mostly above about 0.92. The list shows a part of the results.
Tick one outcome: T for active, F for inactive

Past entries and their recorded results:
Enquiry: Which outcome was assigned to C=CC(=O)N1CCc2cc([N+](=O)[O-])ccc21 in this test?
Return: T

Enquiry: Which outcome was assigned to O=C(NCc1ccco1)c1ccc(Oc2cc(Cl)cc(Cl)c2)o1 in this test?
Return: F

Enquiry: Which outcome was assigned to N#C/C(=C\c1ccccc1Sc1ccc(Cl)cc1)S(=O)(=O)c1ccccn1 in this test?
Return: F

Enquiry: Which outcome was assigned to N#Cc1c(Cl)c(Cl)c(Cl)c(Cl)c1C#N in this test?
Return: T

Enquiry: Which outcome was assigned to O=C(Oc1cc(Cl)c(Cl)cc1Cl)C1c2ccccc2Oc2ccccc21 in this test?
Return: F

Now take the following compound into account.
Enquiry: Which outcome was assigned to N#C/C(=N/Nc1ccccc1Cl)S(=O)(=O)c1ccc(Cl)cc1 in this test?
Return: F

---

- assay.comment: chemical genetic growth profiling, strain panel (AID 1159580);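 note: tested at 20 µM; growth read once vehicle control cultures reached saturation at 30 °C; 1 = growth at the plate median or of vehicle wells; lower values mean less growth of the strain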
- condition.summary: S. cerevisiae deletion strains, growth OD, locus YGL253W, strain hxk2, active compounds read low
The whole screen tested about 5,500 compounds, of which about 2,000 (36%) were called active. About 18% were inconclusive and are not listed. The list shows a part of the results.
// classify: if (normalized growth < 1) TRUE else FALSE

Past entries and their recorded results:
Enquiry: Is 1 strictly greater than the molecule's reported normalized growth? molecule: CC(=O)O[C@]1(C(C)=O)CCC2C3C=C(C)C4=CC(=O)CCC4(C)C3CCC21C (stereo partly drawn)
Return: TRUE

Enquiry: Is 1 strictly greater than the molecule's reported normalized growth? molecule: CC(=O)O[C@H]1C(=O)[C@@]2(C)C([C@H](OC(=O)c3ccccc3)[C@]3(O)C[C@H](OC(=O)[C@H](O)[C@@H](NC(=O)c4ccccc4)c4ccccc4)C(C)=C1C3(C)C)[C@]1(OC(C)=O)CO[C@@H]1C[C@@H]2O (stereo partly drawn)
Return: TRUE

Enquiry: Is 1 strictly greater than the molecule's reported normalized growth? molecule: CC(=O)O[C@]1(C(C)=O)CCC2C3C[C@H](C)C4=CC(=O)CC[C@]4(C)C3CC[C@@]21C (stereo partly drawn)
Return: TRUE

Now take the following molecule into account.
Enquiry: Is 1 strictly greater than the molecule's reported normalized growth? molecule: O=C(/C=C/c1ccccc1)O[C@H]1C[C@@H](O)[C@]2(O)C=CO[C@@H](O[C@@H]3O[C@H](CO)[C@@H](O)[C@H](O)[C@H]3O)[C@H]12
Return: FALSE

---

- assay.comment: chemical genetic growth profiling, strain panel (AID 1159580);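 note: tested at 20 µM; growth read once vehicle control cultures reached saturation at 30 °C; 1 = growth at the plate median or of vehicle wells; lower values mean less growth of the strain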
- condition.summary: S. cerevisiae deletion strains, growth OD, locus YDL074C, strain BRE1, active compounds read low
About 2,000 (36%) of roughly 5,500 compounds were called active. Not shown: some 18% with an inconclusive outcome. The list shows a part of the results.
// classify: if (normalized growth < 1) Condition met else Condition not met

Past entries and their recorded results:
Enquiry: Is 1 strictly greater than the compound's reported normalized growth? compound: O=C(O)c1cc(=O)c2ccc(Cl)cc2[nH]1
Return: Condition not met

Enquiry: Is 1 strictly greater than the compound's reported normalized growth? compound: CCOC(=O)/C=C(\C)OP(=O)(OC)OC
Return: Condition met

Enquiry: Is 1 strictly greater than the compound's reported normalized growth? compound: CCN(CC)C(=S)SSC(=S)N(CC)CC
Return: Condition met

Enquiry: Is 1 strictly greater than the compound's reported normalized growth? compound: NC(=O)N1c2ccccc2CC(=O)c2ccccc21
Return: Condition not met

Enquiry: Is 1 strictly greater than the compound's reported normalized growth? compound: COc1cc(OC)c2c(c1)OC(c1ccc(OC)c(OC)c1)C(O)C2 (configuration not stated)
Return: Condition not met

Enquiry: Is 1 strictly greater than the compound's reported normalized growth? compound: Cc1cc(C(C)(C)CC(C)(C)C)ccc1OCCOCC[N+](C)(C)Cc1ccccc1
Return: Condition met

Now take the following compound into account.
Enquiry: Is 1 strictly greater than the compound's reported normalized growth? compound: CC(C(=O)O)c1ccc2c(c1)[nH]c1ccc(Cl)cc12 (configuration not stated)
Return: Condition not met

---

- assay.comment: chemical genetic growth profiling, strain panel (AID 1159580);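 note: tested at 20 µM; growth read once vehicle control cultures reached saturation at 30 °C; 1 = growth at the plate median or of vehicle wells; lower values mean less growth of the strain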
- condition.summary: S. cerevisiae deletion strains, growth OD, locus YHR094C, strain hxt1
Screen size: about 5,500 compounds; about 2,000 (36%) were called active. Roughly 18% stayed inconclusive and do not appear here. No stated cut-off is given here; in the data, active means normalized growth mostly below about 0.91 (no sharp cut-off); inconclusive means no clear call, values can overlap the other calls; inactive means mostly above about 0.92. Some of the results follow.
Tick one outcome: t = active, f = inactive

Past entries and their recorded results:
Enquiry: Which outcome was assigned to COc1ccc(-c2coc3c(OC)c(O)ccc3c2=O)cc1 in this test?
Return: f

Enquiry: Which outcome was assigned to COc1ccc(-c2c(O)c3cc4c(c(CC=C(C)C)c3oc2=O)OC(C)(C)CC4)cc1 in this test?
Return: f

Enquiry: Which outcome was assigned to CC(=O)OCC(CCn1cnc2cnc(N)nc21)COC(C)=O in this test?
Return: f

Enquiry: Which outcome was assigned to C[N+](C)(C)CCOP(=O)([O-])OP(=O)(O)OC[C@H]1OC(n2ccc(N)nc2=O)[C@H](O)[C@@H]1O (stereo not given in full) in this test?
Return: f

Enquiry: Which outcome was assigned to Cc1c(N(C)C)c(=O)n(-c2ccccc2)n1C in this test?
Return: f

Enquiry: Which outcome was assigned to COc1c2c(c(CC=C(C)C)c3oc(=O)c(-c4ccc(O)cc4)c(O)c13)OC(C)(C)C=C2 in this test?
Return: t

Enquiry: Which outcome was assigned to COc1ccc(-c2coc3c(OC)c(OC)ccc3c2=O)cc1 in this test?
Return: f

Enquiry: Which outcome was assigned to COc1ccc(-c2coc3c(OC)c(OC)cc(O)c3c2=O)cc1 in this test?
Return: f

Enquiry: Which outcome was assigned to COc1ccc(-c2coc3c(OC)c(OC)cc(OC)c3c2=O)cc1 in this test?
Return: f

Now take the following compound into account.
Enquiry: Which outcome was assigned to COc1ccc(-c2coc3c(O)c(OC)ccc3c2=O)cc1 in this test?
Return: f

Data credit: PubChem BioAssay AID1159580
